Tested on: MKN45
Method description: Inhibition of cell viability (MTS), MKN45
Format: cell-based
Assay setup: MKN45 cells, 96 hours incubation
pEC50: −log10 of the molar value. Structures can show the parent of a compound that is named as a salt.
Listed here: items and their measured pEC50.

Solved cases below.
compound="CC(c1ccc2nc(NC(=O)C3CC3)cn2n1)c1nnc2ccc(-c3cnn(C)c3)cn12 (centres unmarked) [49 (free base)]" measure=pEC50 value_measured="7.00 to 7.22"
compound="O=C(Nc1cn2nc(Sc3nnc4ccccn34)ccc2n1)C1CC1 [3 (free base)]" measure=pEC50 value_measured="6.70 to 7.00"
compound="CC(c1ccc2nc(NC(=O)C3CC3)cn2n1)c1nnc2ccc(-c3cnn(C)c3)cn12 (centres unmarked) [49 (TFA Salt)]" measure=pEC50 value_measured="7.00 to 7.22"

Below: the item to evaluate.
Task: Hello, I am looking for reported pEC50 with MKN45 for O=C(Nc1cn2nc(Sc3nnc4ccccn34)ccc2n1)C1CC1 [3 (HCl Salt)] . Could you help?
Result: 6.20 to 6.60

* * *

System: A549
Method description: Inhibition of cell viability (MTS), A549 (negative control line)
Format: cell-based
Assay setup: Homo sapiens, A549, 96 h, A549 cells (negative control), 96 hours incubation
# maps each entry to its EC50

Examples with answers:
compound="O=C(Nc1cn2nc(Cn3nnc4ccc(-c5ccccc5)cc43)ccc2n1)C1CC1 [Compound 15]" value_measured="8 to 25 µM"
compound="CNC(=O)c1ccc(-c2ccc3nnc(Sc4ccc5nc(NC(=O)C6CC6)cn5n4)n3c2)cc1Cl [Compound 28]" value_measured="> 50 µM"
compound="O=C(Nc1cn2nc(C(F)(F)c3nnc4ccc(-c5cnoc5)cn34)ccc2n1)C1CC1 [Compound 46]" value_measured="> 50 µM"

Next, consider the following compound.
Task: // returns reported EC50 for input CS(=O)(=O)c1ccc(-c2ccc3nnc(C(F)(F)c4ccc5nc(NC(=O)C6CC6)cn5n4)n3c2)cc1 [Compound 85]
Result: > 50 µM

* * *

Tested on: A549
Method description: Inhibition of cell viability (MTS), A549 (negative control line)
Format: cell-based
Assay setup: Homo sapiens, A549, 96 h, A549 cells (negative control), 96 hours incubation
pEC50: −log10 of the molar value.
Measure: pEC50

molecule=CN(C)C(=O)Cn1cc(-c2ccc3nnc(Sc4ccc5nc(NC(=O)C6CC6)cn5n4)n3c2)cn1 value_measured="< 4.71"
molecule="CC(c1ccc2nc(NC(=O)C3CC3)cn2n1)c1nnc2ccccn12 (stereo not drawn)" value_measured="< 4.30"
molecule=O=C(Nc1cn2nc(Sc3nnc4ccc(-c5cnn(CCO)c5)cn34)ccc2n1)C1CC1 value_measured="< 4.30"
molecule="CC(c1ccc2nc(NC(=O)C3CC3)cn2n1)c1nnc2ccc(-c3ccc(S(C)(=O)=O)cc3)cn12 (stereo not drawn)" value_measured="< 4.30"
molecule=O=C(Nc1cn2nc(Sc3nnc4ccc(-c5cnc(NCCCO)nc5)cn34)ccc2n1)C1CC1 value_measured="4.60 to 5.10"

Task: What pEC50 value was documented for this molecule, `COc1cccc(-c2ccc3nnc(Sc4ccc5nc(NC(=O)C6CC6)cn5n4)n3c2)n1` ?
Result: < 4.30

* * *

pIC50: −log10 of the molar value. Structures can show the parent of a compound that is named as a salt.
# pIC50 measurements, system: cMET enzyme (amino acids 1023-1360) (Homo sapiens)
# Sequence (P08581 1023-1360): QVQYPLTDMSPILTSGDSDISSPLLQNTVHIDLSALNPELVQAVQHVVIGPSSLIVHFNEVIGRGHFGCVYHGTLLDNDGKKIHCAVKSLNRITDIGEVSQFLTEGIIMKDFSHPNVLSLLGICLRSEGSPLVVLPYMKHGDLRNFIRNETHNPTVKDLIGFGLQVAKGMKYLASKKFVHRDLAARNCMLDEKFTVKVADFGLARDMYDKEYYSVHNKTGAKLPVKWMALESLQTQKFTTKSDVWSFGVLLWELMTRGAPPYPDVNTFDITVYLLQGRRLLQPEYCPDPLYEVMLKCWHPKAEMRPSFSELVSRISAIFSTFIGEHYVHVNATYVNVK

molecule="O=C(Nc1cn2nc(Sc3nnc4ccc(C(F)(F)F)cn34)ccc2n1)C1CC1 [Compound 41]" value_measured="7.00 to 7.22"
molecule="COCCOc1ccc(-c2ccc3nnc(C(F)(F)c4ccc5nc(NC(=O)C6CC6)cn5n4)n3c2)cc1 [Compound 91]" value_measured="> 7.52"
molecule="CCn1cc(-c2ccc3nnc(Sc4ccc5nc(NC(=O)C6CC6)cn5n4)n3c2)ccc1=O [Compound 106]" value_measured="> 7.52"
molecule="O=C(Nc1cn2nc(Sc3nnc4ccc(Cl)cn34)ccc2n1)C1CC1 [Compound 9]" value_measured="7.00 to 7.22"
molecule="O=C(Nc1cn2nc(C(F)(F)c3nnc4ccc(-c5cn[nH]c5)cn34)ccc2n1)C1CC1 [Compound 92]" value_measured="> 7.52"
molecule="CC(c1ccc2nc(NC(=O)C3CC3)cn2n1)c1nnc2ccc(-c3cnn(C)c3)cn12 (centres unmarked) [49 (TFA Salt)]" value_measured="7.23 to 7.52"
molecule="O=C(Nc1cn2nc(Sc3nnc4ccccn34)ccc2n1)C1CC1 [3 (free base)]" value_measured="< 7.00"
molecule="O=C(Nc1cn2nc(Cn3nnc4ccc(-c5cnn(C[C@@H](O)CO)c5)cc43)ccc2n1)C1CC1 [Compound 23]" value_measured="7.23 to 7.52"
molecule="Cn1cc(-c2ccc3nnc(Sc4ccc5nc(NC(=O)C6CC6)cn5n4)n3c2)cn1 [Compound 5]" value_measured="> 7.52"
molecule="O=C(Nc1cn2nc(C(F)(F)c3nnc4ccc(-c5cnn(CCO)c5)cn34)ccc2n1)C1CC1 [Compound 47]" value_measured="> 7.52"

Task: Can you look up the measured pIC50 of C=C(C)c1ccc2nnc(Sc3ccc4nc(NC(=O)C5CC5)cn4n3)n2c1 [Compound 25] for me?
Result: > 7.52

Task: Subsequent entry: Cc1ccn2c(Sc3ccc4nc(NC(=O)C5CC5)cn4n3)nnc2c1 [Compound 43]
Result: < 7.00

Task: Thanks! And CC(C)c1ccc(-c2ccc3nnc(C(F)(F)c4ccc5nc(NC(=O)C6CC6)cn5n4)n3c2)cc1 [Compound 80] ?
Result: 7.23 to 7.52

Task: Do the same for O=C(Nc1cn2nc(C(F)(F)c3nnc4ccc(-c5cncnc5)cn34)ccc2n1)C1CC1 [Compound 87] please
Result: 6.60 to 7.00

Task: Request: CC(c1ccc2nc(NC(=O)C3CC3)cn2n1)c1nnc2ccc(-c3cnn(C)c3)cn12 (centres unmarked) [49 (HCl Salt)]
Result: > 7.52

Task: Next molecule up: CN(C)C(=O)Cn1cc(-c2ccc3nnc(Sc4ccc5nc(NC(=O)C6CC6)cn5n4)n3c2)cn1 [Compound 30]
Result: 7.23 to 7.52

* * *

IC50 values recorded for cMET enzyme (amino acids 1023-1360) (Homo sapiens, UniProt P08581)

# count of solved cases: 3
compound=CS(=O)(=O)c1cncc(-c2ccc3nnn(Cc4ccc5nc(NC(=O)C6CC6)cn5n4)c3c2)c1 measure=IC50 value_measured="> 100 nM"
compound=Cc1n[nH]c(C)c1-c1ccc2nnn(Cc3ccc4nc(NC(=O)C5CC5)cn4n3)c2c1 measure=IC50 value_measured="60 to 100 nM"
compound="CC(c1ccc2nc(NC(=O)C3CC3)cn2n1)c1nnc2ccc(-c3ccc(F)c(C#N)c3)cn12 (centres unmarked)" measure=IC50 value_measured="< 30 nM"

Task: Name the reported IC50 value associated with the compound CC(c1ccc2nc(NC(=O)C3CC3)cn2n1)c1nnc2ccc(-c3cccc(F)c3)cn12 (centres unmarked)
Result: < 30 nM

* * *

pEC50 listing for selected compounds.
System: MKN45
Method description: Inhibition of cell viability (MTS), MKN45
Format: cell-based
Assay setup: Homo sapiens, MKN-45, 96 h, MKN45 cells, 96 hours incubation
pEC50: −log10 of the molar value.

Task: Given the entry CC(c1ccc2nc(NC(=O)C3CC3)cn2n1)c1nnc2ccc(-c3cccc(N(C)C)c3)cn12 (centres unmarked) [Compound 73] , report its measured pEC50.
Result: > 7.52

* * *

Below, each entry is listed with its recorded IC50.
Subject of test: cMET enzyme (amino acids 1023-1360) (Homo sapiens)
Construct: The cMET enzyme (amino acids 1023-1360) nominally at 24 μM was held at −80° C. until use; His tag (N, cleaved yes); made in house; host or cells: Sf9 cells
Method description: Determination of inhibition of cMET (capillary electrophoresis, phosphorylated peptide product)
Format: biochemical
Assay setup: 1.2 nM cMET, 50 μM ATP, 2 μM FL-2 peptide, 2 hours room temperature
Counter-ions that a name gives are not always drawn.

Consider the worked cases shown below.
compound="Cn1cc(-c2ccc3nnc(C(F)(F)c4ccc5nc(NC(=O)C6CC6)cn5n4)n3c2)cn1 [45 (TFA Salt)]" value_measured="30 to 59 nM"
compound=O=C(Nc1cn2cc(Cn3nnc4cccnc43)ccc2n1)C(F)(F)F value_measured="> 100 nM"
compound=Nc1cn2nc(Sc3nnc4ccccn34)ccc2n1 value_measured="> 630 nM"

Task: IC50 lookup needed for `O=C(Nc1cn2nc(Sc3nnc4ccc(C#CCO)cn34)ccc2n1)C1CC1` , thanks.
Result: 30 to 59 nM

* * *

Tested on: A549
Method description: Inhibition of cell viability (MTS), A549 (negative control line)
Format: cell-based
Assay setup: Homo sapiens, A549, 96 h, A549 cells (negative control), 96 hours incubation
EC50: recorded values

Here's what some known entries look like.
molecule="CS(=O)(=O)c1cncc(-c2ccc3nnn(Cc4ccc5nc(NC(=O)C6CC6)cn5n4)c3c2)c1 [Compound 21]" measure=EC50 value_measured="> 50 µM"
molecule="CC(c1ccc2nc(NC(=O)C3CC3)cn2n1)c1nnc2ccc(-c3ccc(C(N)=O)cc3)cn12 (centres unmarked) [Compound 67]" measure=EC50 value_measured="> 50 µM"
molecule="CC(c1ccc2nc(NC(=O)C3CC3)cn2n1)c1nnc2ccc(-c3cn[nH]c3)cn12 (centres unmarked) [Compound 64]" measure=EC50 value_measured="> 50 µM"

Task: I'd like to know its EC50. The molecule in question is O=C(Nc1cn2nc(Sc3nnc4ccc(C(F)(F)F)cn34)ccc2n1)C1CC1 [Compound 41]
Result: 8 to 25 µM

Task: Next molecule: CC(c1ccc2nc(NC(=O)C3CC3)cn2n1)c1nnc2ccc(-c3cccc(F)c3)cn12 (centres unmarked) [Compound 65]
Result: > 50 µM

Task: O=C(Nc1cn2nc(Cn3nnc4ccc(-c5cnn(C[C@H](O)CO)c5)cc43)ccc2n1)C1CC1 [Compound 22] , same question.
Result: > 50 µM

Task: Item: C=C(C)c1ccc2nnc(Sc3ccc4nc(NC(=O)C5CC5)cn4n3)n2c1 [Compound 25]
Result: 8 to 25 µM

Task: Same lookup for O=C(Nc1cn2nc(Sc3nnc4ccc(-c5cccc(F)c5)cn34)ccc2n1)C1CC1 [Compound 44] , please.
Result: 0.6 to 1.6 µM
